src = patent US7842469B2

assay: Bioluminescence emission spectra; type: physicochemical; details: emission spectrum with native coelenterazine
Here, each record is paired with measured Wavelength (nm) peak data.

Need Wavelength (nm) peak of C124A/K136R: RLuc mutant C124A/K136R (protein) MASKVYDPEQRKRMITGPQWWARCKQMNVLDSFINYYDSEKHAENAVIFLHGNAASSYLWRHVVPHIEPVARCIIPDLIGMGKSGKSGNGSYRLLDHYKYLTAWFELLNLPKKIIFVGHDWGAALAFHYSYEHQDRIKAIVHAESVVDVIESWDEWPDIEEDIALIKSEEGEKMVLENNFFVETMLPSKIMRKLEPEEFAAYLEPFKEKGEVRRPTLSWPREIPLVKGGKPDVVQIVRNYNAYLRASDDLPKMFIESDPGFFSNAIVEGAKKFPNTEFVKVKGLHFSQEDAPDEMGKYIKSFVERVLKNEQ , thanks.
482 nm

Need Wavelength (nm) peak of C124A/F199M: RLuc mutant C124A/F199M (protein) MASKVYDPEQRKRMITGPQWWARCKQMNVLDSFINYYDSEKHAENAVIFLHGNAASSYLWRHVVPHIEPVARCIIPDLIGMGKSGKSGNGSYRLLDHYKYLTAWFELLNLPKKIIFVGHDWGAALAFHYSYEHQDKIKAIVHAESVVDVIESWDEWPDIEEDIALIKSEEGEKMVLENNFFVETMLPSKIMRKLEPEEMAAYLEPFKEKGEVRRPTLSWPREIPLVKGGKPDVVQIVRNYNAYLRASDDLPKMFIESDPGFFSNAIVEGAKKFPNTEFVKVKGLHFSQEDAPDEMGKYIKSFVERVLKNEQ , thanks.
480 nm
